The reader will find reported cytotoxicity at 10 µM values listed item by item below.
assay.text: Toxicity liver stage against HepG2, at 10uM
Type: cell-based
Set-up: test concentration 10 uM, cell line HepG2-A16-CD81EGFP
experimental.parameters: human, HepG2-A16-CD81EGFP cells; read-out: INHIBITION
Quick note: unit goes after the number.

Below are worked cases with known answers.
O=C(Cc1ccsc1)N1C[C@@H]2C[C@@H](c3nnc(C4CC4)o3)O[C@@H]2C1; -142%
O=C(NCCN1CCOC1=O)c1cc(-c2ccccc2)on1; 12.3%
COCCN1C[C@H]2CCN(C(C)=O)CC[C@H]2S1(=O)=O; 15.4%
O=S1(=O)COCCN1Cc1ccc(F)c(F)c1; 3.42%
CCN1CCC(Cn2ccc3ccc(C(=O)OC)cc3c2=O)C1 (stereo unspecified); -9.09%

Inquiry: Would you mind telling me what cytotoxicity at 10 µM value was observed for C[C@@H]1CN(C(=O)c2nc3ccc(Cl)cn3c2-c2ncc[nH]2)C[C@H](C)O1 ?
Reply text: -6.01%

###

assay.text: Toxicity liver stage against HepG2, at 10uM
Assay type: cell-based
Design: test concentration 10 uM, cell line HepG2-A16-CD81EGFP
experimental.parameters: human, HepG2-A16-CD81EGFP cells; read-out: INHIBITION
test.readout: cytotoxicity at 10 µM

Below are worked cases with known answers.
Cc1ccc(-n2cc(CN3CCOCC(CN(C)C)C3)cn2)cc1C (stereo unspecified); -19.8%
O=C(C1CCCC1)N1C[C@@H]2CCN(c3cccnc3)C[C@@H]2C1; -78.4%
O=C(Cc1ccsc1)N1CCN(CCOc2ccccc2)CC1; -4.6%

Inquiry: Would you mind telling me what cytotoxicity at 10 µM value was observed for CCC(=O)NCCNC(=O)c1nn(C)c(C)c1Cl ?
Reply text: 5.05%

Inquiry: Next record, please: COc1cc(C(=O)N(C)C(C)Cc2cc(C)ccn2)ccn1 (stereo unspecified)
Reply text: -9.57%

Inquiry: Next record, please: Cc1ccc(CN2CCCC3(CCCCN3S(C)(=O)=O)C2)s1 (stereo unspecified)
Reply text: -115%

###

assay.text: Toxicity liver stage against HepG2, at 10uM
Assay type: cell-based
Set-up: test concentration 10 uM, cell line HepG2-A16-CD81EGFP
experimental.parameters: human, HepG2-A16-CD81EGFP cells; read-out: INHIBITION
The reader will find reported cytotoxicity at 10 µM values listed item by item below.
Report the figure in % without appending any unit label.

Cc1noc(CN2CCN(C(C)C(=O)NCc3cccs3)CC2)n1 (stereo not given); 17.2

Inquiry: Would you mind telling me what cytotoxicity at 10 µM value was observed for COc1ccc(COCC(O)CNC(=O)c2ccc(C#N)cc2)cc1 (stereo not given) ?
Reply text: 0.561

Inquiry: Next record, please: Cc1ccccc1-c1cncc(C2CCN(C3CCOCC3)CC2)n1
Reply text: -2.81

Inquiry: Next record, please: CCc1cnc(C)nc1NCC(O)CN1CCCCCC1 (stereo not given)
Reply text: 3.26

Inquiry: Next record, please: O=C(c1ccccn1)N1CCCC(c2nccn2CC2CCC2)C1 (stereo not given)
Reply text: -22.4

Inquiry: Next record, please: CC(NC(=O)C1CC1)C(=O)N(C)Cc1ccsc1 (stereo not given)
Reply text: 3.64

Inquiry: Next record, please: CN(C)c1ccc(C(=O)NCCCNc2ccc(C(F)(F)F)cn2)cc1
Reply text: -7.66

Inquiry: Next record, please: CCN1CCC(c2nc3ccc(NC4CCC4)cn3n2)CC1
Reply text: -121

Inquiry: Next record, please: COc1cccc(-c2n[nH]cc2CNC2CCC(O)CC2)c1 (stereo not given)
Reply text: -0.874

Inquiry: Next record, please: CCc1nc(CN(C)c2nccc(N3CCCC(O)C3)n2)no1 (stereo not given)
Reply text: 0.324

Inquiry: Next record, please: O=C(c1cccnc1)N1CCCC(c2ccnc3nccn23)C1 (stereo not given)
Reply text: 6.2

Inquiry: Next record, please: O=C(NCc1cc[nH]n1)NCC(c1ccccc1Cl)N1CCCC1 (stereo not given)
Reply text: 14.7

Inquiry: Next record, please: CC(=O)N1CCC(C)(c2cc(C(=O)NCC(C)(C)C)nc(C)n2)CC1
Reply text: 6.93

Inquiry: Next record, please: CC(=O)N1CCNCC1c1cccc(C(=O)N(C)C)c1 (stereo not given)
Reply text: 4.45

Inquiry: Next record, please: COc1ccc(Cl)cc1C(=O)N(C)Cc1cc(C)on1
Reply text: -22.9

Inquiry: Next record, please: Cc1nn(C)c(N(C)C)c1CNCc1ccnc(N2CCOCC2)c1
Reply text: -13

Inquiry: Next record, please: Cn1c(C(F)(F)F)nn(CCNC(=O)Nc2ccccc2F)c1=O
Reply text: -2.59

Inquiry: Next record, please: O=C(c1cnc(NCC2CCCO2)c(Cl)c1)N1CCOCC1 (stereo not given)
Reply text: 0.0875

Inquiry: Next record, please: Cc1cc(NC(=O)NCc2ccc(S(=O)(=O)N3CCCC3)s2)no1
Reply text: -2.24

Inquiry: Next record, please: CC(=O)Nc1cccc2c1ccn2CC(=O)NC(C)C
Reply text: -7.79

Inquiry: Next record, please: Cc1nccn1-c1ccc(CNC(=O)c2ccc(O)nc2)cn1
Reply text: 1.75

###

assay.text: Toxicity liver stage against HepG2, at 10uM
Assay type: cell-based
Parameters: test concentration 10 uM, cell line HepG2-A16-CD81EGFP
experimental.parameters: human, HepG2-A16-CD81EGFP cells; read-out: INHIBITION
test.readout: cytotoxicity at 10 µM (%)
Report the figure in % without appending any unit label.

CC(C)(O)CN1CCN(C(=O)c2cnn(-c3ccccc3F)c2)CC1; -3.8
COc1ccc(F)c(CN2CCCC3(CCN(C4CCOCC4)C3)C2)c1 (configuration not stated); -1.48
Cn1ccnc1CNC[C@H]1Cn2cc(-c3ccccc3)nc2CO1; -6.09

Inquiry: Would you mind telling me what cytotoxicity at 10 µM value was observed for COc1ccc(S(=O)(=O)NCC(c2cccn2C)N(C)C)cc1F (configuration not stated) ?
Reply text: -0.418

Inquiry: Next record, please: CC(C)(O)CCc1cccc(C(=O)NCc2nccs2)c1
Reply text: -50.7

###

assay.text: Toxicity liver stage against HepG2, at 10uM
Format: cell-based
Design: test concentration 10 uM, cell line HepG2-A16-CD81EGFP
experimental.parameters: human, HepG2-A16-CD81EGFP cells; read-out: INHIBITION
test.readout: cytotoxicity at 10 µM (%)
Report the figure in % without appending any unit label.

Below are worked cases with known answers.
CCN1CCC2(CC1)C(=O)Nc1ccc(C(=O)NC)cc12; -0.697
Cc1cc(C)n(CC2CCCCN2CC(=O)Nc2c(C)n[nH]c2C)n1 (centres undefined); -1.92
Cc1cc(C)c(CNC(=O)NCc2cc(F)cc(F)c2)c(=O)[nH]1; -4.98
CCCC(=O)N1CCC(c2cc[nH]n2)C1 (centres undefined); 1.2

Inquiry: Would you mind telling me what cytotoxicity at 10 µM value was observed for CC(Cn1cccn1)NCc1ccc(Cl)s1 (centres undefined) ?
Reply text: -8.12

Inquiry: Next record, please: Cc1cccc(NC2CCN(C(=O)Nc3ccc(F)cc3C)CC2)n1
Reply text: -11.7

Inquiry: Next record, please: Cc1nc(C(C)C)sc1CNC(=O)CCCN1CCCCC1
Reply text: -13.8

Inquiry: Next record, please: Cc1ccnc(C2CN(Cc3ccc(-c4ccccc4C(=O)O)o3)C2)n1
Reply text: 2.51

Inquiry: Next record, please: Cc1nc(N2CCC(O)(c3ccc(F)cc3)CC2)c2c(C)nn(C)c2n1
Reply text: -0.503

###

assay.text: Toxicity liver stage against HepG2, at 10uM
Type: cell-based
Design: test concentration 10 uM, cell line HepG2-A16-CD81EGFP
experimental.parameters: human, HepG2-A16-CD81EGFP cells; read-out: INHIBITION
test.readout: cytotoxicity at 10 µM (%)
Report the figure in % without appending any unit label.

Below are worked cases with known answers.
O=C(NC1CCCC1)O[C@H]1COCCN(c2nc3ccccc3s2)C1; -0.655
CCCc1ccc(OCCNCc2ccco2)c(OC)c1; -2.04
CCOCCN1CCN(CCOCC(F)(F)F)CC1; 1.83
CCCn1ncnc1C(C)NC(=O)C1CCN(C(C)C)CC1 (centres undefined); -139

Inquiry: Would you mind telling me what cytotoxicity at 10 µM value was observed for CN(Cc1ccco1)[C@@H]1CN(Cc2ccoc2)C[C@@H]2CCCO[C@@H]21 ?
Reply text: -1.6

Inquiry: Next record, please: CN(Cc1noc2c1CCCC2)C(=O)CN1C(=O)COc2ccccc21
Reply text: -55.1

Inquiry: Next record, please: Cc1nnc2n1CCN(C(=O)c1cc(Cl)c[nH]1)C2
Reply text: -5.87

###

assay.text: Toxicity liver stage against HepG2, at 10uM
Format: cell-based
Set-up: test concentration 10 uM, cell line HepG2-A16-CD81EGFP
experimental.parameters: human, HepG2-A16-CD81EGFP cells; read-out: INHIBITION
test.readout: cytotoxicity at 10 µM (%)
Report the figure in % without appending any unit label.

Below are worked cases with known answers.
Cc1cc(C(=O)NCc2cccs2)nc(N2CCCC2)n1; -0.438
O=S(=O)(c1cccnc1)N1C[C@@H]2COC[C@]2(COCC2CC2)C1; 4.83
Cc1nc(CN2CCCC(N(C)CC3CCCC3)C2)no1 (configuration not stated); -7.3
CC(C)N1CCC(Cc2cc(-c3ccccc3C(=O)O)ncn2)CC1; -5.28
CCOCC(=O)N1CCC(Oc2ccc(Cl)cn2)CC1; 7.39
CN1C(=O)C(c2cccnc2)CC12CCN(Cc1nccs1)CC2 (configuration not stated); -1.16
CC(C)c1cc(NCC2(CO)CCCC2)ncn1; 11.9
CS(=O)(=O)CCC(=O)N(Cc1c(F)cccc1F)C1CCCC1; -12.9
CCN1N=C(C(=O)N2CCCC(c3nc(C)cs3)C2)CCC1=O (configuration not stated); -3.12
CCN(CC1CCOC1)C(=O)c1ccccc1S(C)(=O)=O (configuration not stated); -0.945

Inquiry: Would you mind telling me what cytotoxicity at 10 µM value was observed for CSc1ncccc1C(=O)NCC(c1ccco1)N(C)C (configuration not stated) ?
Reply text: 2.57

Inquiry: Next record, please: COc1cccc(CC2CCCN2CC(N)=O)c1 (configuration not stated)
Reply text: -55.6
